target: FLT-3 kinase domain recombinant protein (Homo sapiens, UniProt P36888); construct: 50 μL FLT-3 kinase domain recombinant protein diluted with reaction buffer to initiate the reaction; experiment: Inhibition rate on FLT3 kinase (ELISA); type: biochemical; details: compound 100 nM; two values per compound; read-out: Inhibition rate (%) against receptor tyrosine kinase FLT-3
Sequence (P36888 610-943 limits assumed): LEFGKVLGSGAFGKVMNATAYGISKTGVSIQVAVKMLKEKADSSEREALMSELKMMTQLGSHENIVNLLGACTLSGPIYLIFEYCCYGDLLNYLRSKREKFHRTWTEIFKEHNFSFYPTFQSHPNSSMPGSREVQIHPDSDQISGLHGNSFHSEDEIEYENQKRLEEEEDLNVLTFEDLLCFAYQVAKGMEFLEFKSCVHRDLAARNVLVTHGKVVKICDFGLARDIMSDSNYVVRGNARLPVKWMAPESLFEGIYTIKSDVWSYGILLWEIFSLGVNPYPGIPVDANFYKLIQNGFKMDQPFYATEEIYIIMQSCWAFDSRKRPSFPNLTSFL
Quick rule for you: inhibition at 0.1 µM at 60% or higher means condition met, lower means condition not met.

- COc1cc2ncnc(Oc3ccc(NC(=O)c4cn(-c5ccc(F)cc5)c5cc(N6CCNCC6)c(F)cc5c4=O)cc3F)c2cc1OC: condition not met

## Input Answer whether inhibition at 0.1 µM of `Cc1c(C(=O)Nc2ccc(Oc3ncnc4[nH]cc(-c5ccccc5)c34)c(F)c2)c(=O)c2cc(OC(F)(F)F)ccc2n1C` is greater than or equal to 60%.
## Output condition met

## Input Form field: inhibition at 0.1 µM at least 60%? Entry: `CCc1ccc2c(c1)c(=O)c(C(=O)Nc1ccc(Oc3ncnc4cc(OCCN(C)C)c(OC)cc34)c(F)c1)c(C)n2C`
## Output condition met

## Input Assess whether reported inhibition at 0.1 µM for `COc1cc2ncnc(Oc3ccc(NC(=O)c4cn5c6c(c(N7CCN(C)CC7)c(F)cc6c4=O)OCN5C)cc3F)c2cc1OC` sits at 60% or higher.
## Output condition met

## Input Reported inhibition at 0.1 µM at or above 60%? `CCc1ccc2c(c1)c(=O)c(C(=O)Nc1ccc(Oc3ncnc4[nH]cc(-c5ccccc5)c34)c(F)c1)c(CC)n2C`
## Output condition not met

## Input Please check the record COc1cc2ncnc(Oc3ccc(NC(=O)c4cn5c6c(c(N7CCC(O)CC7)c(F)cc6c4=O)CCC5C)cc3F)c2cc1OC (stereo not shown) and state if its inhibition at 0.1 µM is at or above 60%.
## Output condition met

###

test: In vivo pharmacokinetic and bioavailability experiments of rats; design: species or system SD rats; conditions: Sprague-Dawley, rat, plasma, po, 25 mg/kg; read-out: F (oral bioavailability)
# bioavailability >= 8% gives satisfied, anything below gives not satisfied

For orientation, consider the following solved cases.
* COc1cc2ncnc(Oc3ccc(NC(=O)c4cn5c6c(c(N7CCC(O)CC7)c(F)cc6c4=O)CCC5C)cc3F)c2cc1OC (centres unmarked) | satisfied
* CCc1ccc2c(c1)c(=O)c(C(=O)Nc1ccc(Oc3ncnc4cc(OCCCN5CCN(C)CC5)c(OC)cc34)c(F)c1)c(C)n2C | satisfied
* COc1cc2ncnc(Oc3ccc(NC(=O)c4cn(-c5ccc(F)cc5)c5cc(N6CCNCC6)c(F)cc5c4=O)cc3F)c2cc1OC | not satisfied
* CCc1ccc2c(c1)c(=O)c(C(=O)Nc1ccc(Oc3ncnc4cc(OCCN(C)C)c(OC)cc34)c(F)c1)c(C)n2C | satisfied

## Input I'd appreciate it if you could say whether `CCc1ccc2c(c1)c(=O)c(C(=O)Nc1ccc(Oc3ncnc4[nH]cc(-c5ccccc5)c34)c(F)c1)c(C)n2C` has bioavailability at least equal to 8%.
## Output not satisfied

## Input In plain terms: is recorded bioavailability at least 8% for `CCc1ccc2c(c1)c(=O)c(C(=O)Nc1ccc(Oc3ncnc4cc(OCCCN5CCOCC5)c(OC)cc34)c(F)c1)c(C)n2C` ?
## Output satisfied

## Input # check: bioavailability of `CCc1ccc2c(c1)c(=O)c(C(=O)Nc1ccc(Oc3ncnc4cc(OCCN5CCCC5)c(OC)cc34)c(F)c1)c(C)n2C` is greater than or equal to 8%
## Output satisfied

// provenance: patent US10683278B2
